# System: HT29 colon
# Assay Method Text: NCI-60 one-dose screen, 48 h (100 = growth as untreated, 0 = no growth, -100 = all killed)
# Settings: 10 µM unless noted
About 83,000 compounds went through this panel and 20% of them were active in at least one assay; those are over-represented in the sample as a whole.
Measurement Type: growth (%)

                                    compound  measurement_type  assay_result
 0  O=C1c2ccccc2C(c2ccccc2)C1c1ccccc1 (centres undefined)            growth          98.9
 1                         CC1(C)CC(=O)NC1=O            growth          99.8
 2        c1ccc2c[n+](Cc3ccc4ccccc4n3)ccc2c1            growth          57.2
 3                    CCCCCCCCCCCCCCCCC(=O)O            growth          97.7
 4          COc1ccc(S(=O)(=O)c2ccc(F)cc2)cc1            growth           106
 5                            Cc1cccc(Cl)c1N            growth           109
 6  COC(=O)c1nc(=S)[nH]c(C(=O)OC)c1C(=O)c1ccc(OC)cc1            growth           106
 7  O=[N+]([O-])c1ccc(N/N=C/C2CCCCCC2)c([N+](=O)[O-])c1            growth           100
 8  O=c1[nH]c(=S)[nH]n1C(=S)n1[nH]c(=S)[nH]c1=O            growth           106
 9                          NNC(=O)Nc1ccccc1            growth           106
10       O=c1[nH]c(=O)c2[nH]c(=O)[nH]c2[nH]1            growth           105
11                   O=C1c2ccccc2CN1c1ccccc1            growth          82.4
12                           COc1ccc(CCO)cc1            growth          94.3
13           CC(=O)Oc1cc(C)c(OC(C)=O)c(C)c1C            growth           114
14                               Cc1cnc(N)s1            growth           100
15       Nc1c(Cl)cc2c(c1Br)C(=O)c1ccccc1C2=O            growth           100
16    CC(C)(C)OC(=O)c1ccc(NCc2cc(O)ccc2O)cc1            growth          73.5
17                               CCOCCC(=O)O            growth           104
18           COc1ccc(CCN=Cc2ccc(Cl)cc2)cc1OC            growth           107
19  CN1C2C=CC(=O)C1C1C(=O)N(c3ccccc3)C(=O)C12 (centres undefined)            growth          48.8
20    COC(=O)c1cc(C(=O)OC)cc([N+](=O)[O-])c1            growth           111
21  CCC(C)(O)CCC(C)(O)CC (centres undefined)            growth           113
22  COCCCNC1=C(C#N)C(=O)NC(c2cccs2)S1 (centres undefined)            growth          99.9
23                     C/C(CC(C)C)=N/NC(N)=S            growth          56.1
24                        Cc1cc(=NO)cc(C)n1O            growth           114
25                     CCc1ccc(OC(=O)CCl)cc1            growth           107
26                          CCN(CC)C(=S)SCCO            growth          99.8
27           CCc1ccccc1-n1[nH]c(C)c(C=N)c1=O            growth           114
28                  CCOc1ccc(/C=C\C(=O)O)cc1            growth           105
